- experimental details: Pharmacokinetics after oral administration in dogs
- Format: in vivo, beagle dogs
- condition details: dog, plasma; male beagle dogs, single oral administration, Mean
- Description: After fully grinding and mixing the samples with PEG400 (the concentration in the sample solution was 5%), a small amount (about 2 ml) of 0.2% HPMC aqueous solution was added to grind into a uniform paste until there were no large particles. […] Blood samples were collected and plasma was separated at 0.5, 1.0, 2.0, 4.0, 6.0, 10, 24, 48, 72, 96, 120, 144 and 168 hours before and after each round of administration. […] The concentration of APG-115 in dog plasma was analyzed by LC-MS/Ms. […]
endpoint name: AUC(0-t) (ng·h/mL)
Field format: number, assumed ng·h/mL, no unit text.

Inquiry: Given CCN1[C@@H](C(=O)NC23CCC(C(=O)O)(CC2)CC3)[C@H](c2cccc(Cl)c2F)[C@]2(C(=O)Nc3cc(Cl)ccc32)C12CCCCC2 [APG-115 hydrate] , respond with its AUC(0-t).
Reply text: 4580
